Organism: Mus musculus
PROTOCOL_DETAILS: Effective dose against (+)-SKF-10047-induced stereotyped behavior in mice was determined
Assay type: functional
A collection of compounds and their measured ED25
Give a bare numeral; the unit mg/kg is implied.

Solved entries:
CCCN(CCC)CCc1cccc(OC)c1OCCc1ccccc1.Cl: 79
OC(CCCN1CCN(c2ncc(F)cn2)CC1)c1ccc(F)cc1 (stereo not given) [BMY-14802]: 7.6
CCCN(CCC)CCCc1ccc(OC)c(OCCc2ccccc2)c1.Cl: 44

Enquiry: Dear colleague, I am looking for the recorded ED25 of the following compound: "CCCN(CCC)CCc1ccc(OC)c(OCCc2ccccc2)c1.Cl"
Return: 6.5

Enquiry: "CCCN(CCC)CCc1cc(Cl)ccc1OCCc1ccccc1.O=C(O)C(=O)O" ?
Return: 235
